Test: MTT assay, cytotoxicity in immune cells separated from spleen of mice
Format: cell-based
Conditions: BDF, mouse
Measured IC50 at 24 h, listed per entry for reference.
Quantity Kind: IC50 at 24 h

>  <Mol>
CCCCCCCCCCCCCC[C@@H](O)[C@@H](O)[C@@H](N)CO

>  <Reported>
~75 µM

$$$$
>  <Mol>
CCCCCCCCCCCCCC[C@@H](O)[C@@H](O)[C@H](CO)NC(C)=O

>  <Reported>
~75 µM

$$$$

---

Measured viability at 24 h, 30 µM, listed per entry for reference.
Assay: MTT assay, cytotoxicity in HUVEC
Format: cell-based, human
Conditions: human

>  <Mol>
CCCCCCCCCCCCCC[C@@H](O)[C@@H](O)[C@H](CO)NC(C)=O

>  <viability at 24 h, 30 µM (%)>
14

$$$$
>  <Mol>
CCCCCCCCCCCCCC[C@@H](O)[C@@H](O)[C@@H](N)CO

>  <viability at 24 h, 30 µM (%)>
13

$$$$
